Cited source: patent US20250361295A1

target: T1, human LILRB3 (human, UniProt O75022 24-631); experiment: FACS, 293F-hLILRB3 cells
T1 construct: whole, on cells; also called hLILRB3
T1 sequence (O75022 24-631): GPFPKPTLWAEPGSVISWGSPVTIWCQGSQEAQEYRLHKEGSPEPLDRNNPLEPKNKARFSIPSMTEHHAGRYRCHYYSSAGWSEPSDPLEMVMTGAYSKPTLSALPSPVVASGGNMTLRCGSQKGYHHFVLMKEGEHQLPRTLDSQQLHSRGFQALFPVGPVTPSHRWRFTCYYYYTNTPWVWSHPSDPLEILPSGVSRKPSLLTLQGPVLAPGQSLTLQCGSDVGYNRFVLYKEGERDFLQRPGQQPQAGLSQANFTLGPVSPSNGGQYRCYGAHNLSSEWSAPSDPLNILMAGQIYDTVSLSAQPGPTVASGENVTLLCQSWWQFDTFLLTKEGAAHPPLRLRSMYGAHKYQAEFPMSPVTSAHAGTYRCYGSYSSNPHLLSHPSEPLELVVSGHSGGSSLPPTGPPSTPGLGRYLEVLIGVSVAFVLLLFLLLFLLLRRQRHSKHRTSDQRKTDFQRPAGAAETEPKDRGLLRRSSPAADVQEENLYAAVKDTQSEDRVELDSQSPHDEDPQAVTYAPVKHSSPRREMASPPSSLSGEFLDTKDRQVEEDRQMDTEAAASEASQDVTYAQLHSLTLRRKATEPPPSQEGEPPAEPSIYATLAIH
attribute.measured: MFI (MFI)
Value expressed in MFI; do not type the unit.

Some solved cases for reference:
binder: 27-D11-C2-A10 (antibody, V domains shown, mouse monoclonal hybridoma antibody) VH: EVQLVESGGGLVQPGGSRKLSCAASGFTFSVFGVHWVRQAPEKGLEWVAYISSGSNTIHYADTVKGRFTISRDIPKNTLFLQMTSLRSEDTAMYYCARSSGTGAMDYWGQGTSVTVSS VL: DIQMTQSTSSLSASLGDRVSISCRASQDISNYLNWYQQKPDGAVKLLIYYTSRLHSGVPSRFSGSGSGTDYSLTISNLDQEDIATYFCQQGNTLPWTFGGGTKLELK
reading.unit: MFI
MFI: 19.7
--
binder: 36-F4-H1-D9 (antibody, V domains shown, mouse monoclonal hybridoma antibody) VH: EVKLLESGGGLVQPGGSLKLSCAASGFDFSRYWMIWVRQAPEKGLEWIGEINPDSSTINYTPSLKDKFIISRDNAKNTLYLQMSKVRSEDTALYYCARPYYRYDVGYFDVWGAGTTVTVSS VL: DIVMTQAPKVLLVSAGDRVTISCKASQSVSNAVVWYQQKPGQSPKLLIFYASNRYTGVPDRFTGSGYGTDFTFSISTVQAEDLAVYFCQQDYSSPWTFGGGTKLEIK
reading.unit: MFI
MFI: 23.5

Switching to the query record.
Value of MFI reported for the binder 4-E6-E4-B12 (antibody, V domains shown, mouse monoclonal hybridoma antibody) VH: EVQLKESGAELVKPGASVKLSCKASGYTFTSHWMHWVKQRPGQGLEWIGEINPSNGRTNYNEKFTSKATLTVDQSSSTAYMQLSSLTSEDSAVYYCARGNLTTVVPFDYWGQGTALTVSS VL: DIVMTQSPSSLSASLGGKVTITCKASQDINKFIAWYQHKPGKGPRLLIHFTSTLQPGIPSRFSGSGSGRDYSFSISNLEPEDIATYFCLQYDLLLTFGGGTKLEIK is 27.1
